Attribute: kon
target: T1, human PD-L1 (Cat. #10084-H08H, Sino Biological) (human, UniProt Q9NZQ7 19-239); test: SPR, Biacore X100, 1:1 Langmuir
T1 construct: Bought recombinant protein used in the Biacore test; also called hPDL1; hPD-L1
T1 sequence (Q9NZQ7 19-239 limits assumed): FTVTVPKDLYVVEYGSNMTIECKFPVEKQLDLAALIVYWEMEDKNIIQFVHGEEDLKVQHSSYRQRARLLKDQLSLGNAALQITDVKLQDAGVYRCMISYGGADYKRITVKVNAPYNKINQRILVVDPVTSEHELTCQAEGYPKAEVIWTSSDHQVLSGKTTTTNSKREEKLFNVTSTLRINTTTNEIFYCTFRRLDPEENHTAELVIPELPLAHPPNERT

{"binder": "H12L61 (antibody, human IgG1, kappa, V domains shown, also called 24D5 H12 and 24D5 L61) VH: QVQLVQSGAEVKKPGASVKVSCKASGYTFTSYWMHWVRQAPGQGLEWMGRITPSSGFAMYNEKFKNRVTMTRDTSTSTVYMELSSLRSEDTAVYYCARGGSSYDYFDYWGQGTTVTVSS VL: DIVLTQSPASLAVSPGQRATITCRASESVSIHGTHLMHWYQQKPGQPPKLLIYAASNLESGVPARFSGSGSGTDFTLTINPVEAEDTANYYCQQSFEDPLTFGQGTKLEIKR", "readout unit": "M⁻¹ s⁻¹", "kon": "2.18e+06"}
{"binder": "H19L61 (antibody, human IgG1, kappa, V domains shown, also called 24D5 H19 and 24D5 L61) VH: QVQLVQSGAEVKKPGASVKVSCKASGYTFTSYWMHWVRQAPGQGLEWMGRISPGGGFTLYNEKFKNRVTMTRDTSTSTVYMELSSLRSEDTAVYYCARGGSSYDYFDYWGQGTTVTVSS VL: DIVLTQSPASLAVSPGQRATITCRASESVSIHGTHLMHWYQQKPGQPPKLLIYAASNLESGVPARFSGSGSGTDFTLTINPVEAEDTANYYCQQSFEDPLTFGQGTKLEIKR", "readout unit": "M⁻¹ s⁻¹", "kon": "2.34e+06"}
{"binder": "H5L11 (antibody, human IgG1, kappa, V domains shown, from the HRP00049 mutant library; also called 9-2 H5 and 9-2 L11) VH: QVQLQESGPGLVKPSQTLSLTCTVSGGSISDGSAYWSWIRQHPGKGLEYIGFISRAGSTYNTPSLKGRVTISRDTSKNQFSLKLSSVTAADTAVYYCARSGGWLAPFDYWGRGTLVTVSS VL: DIVMTQSPDSLAVSLGERATINCKSSQSLFYHSNQKHSLAWYQQKPGQPPKLLIYGASTRESGVPDRFSGSGSGTDFTLTISSLQAEDVAVYYCQQYYGYPYTFGGGTKVEIKR", "readout unit": "M⁻¹ s⁻¹", "kon": 611000}
